biological target: Acetylcholinesterase (Homo sapiens, UniProt P22303)
Sequence (P22303 whole entry): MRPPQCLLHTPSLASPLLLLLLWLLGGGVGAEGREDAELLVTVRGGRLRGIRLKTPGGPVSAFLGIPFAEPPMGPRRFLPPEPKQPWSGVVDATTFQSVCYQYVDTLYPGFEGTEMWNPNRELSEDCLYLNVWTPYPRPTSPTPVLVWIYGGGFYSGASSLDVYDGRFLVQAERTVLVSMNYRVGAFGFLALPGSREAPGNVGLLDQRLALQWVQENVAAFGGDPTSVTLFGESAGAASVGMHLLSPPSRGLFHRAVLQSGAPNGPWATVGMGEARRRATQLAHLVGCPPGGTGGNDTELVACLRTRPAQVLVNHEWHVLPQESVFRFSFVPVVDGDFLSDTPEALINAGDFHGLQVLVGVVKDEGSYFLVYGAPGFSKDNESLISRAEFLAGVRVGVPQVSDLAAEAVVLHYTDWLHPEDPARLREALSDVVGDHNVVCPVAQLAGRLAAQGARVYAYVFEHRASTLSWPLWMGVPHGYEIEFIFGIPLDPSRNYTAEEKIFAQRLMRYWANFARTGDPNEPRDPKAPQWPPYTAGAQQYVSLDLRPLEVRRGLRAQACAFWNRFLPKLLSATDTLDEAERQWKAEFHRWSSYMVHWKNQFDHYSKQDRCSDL
pIC50: −log10 of the molar value.
Lab note: anything with pIC50 at or over 7 counts as true (1); the rest go in false (0).

Hi team, for `N#Cc1c(N)nc(NCCC2CCN(Cc3ccccc3)CC2)c(C#N)c1-c1ccccc1` , is the recorded pIC50 at or above 7?
false (0)

Please indicate if the recorded pIC50 for `N#Cc1cc(C#N)c(NCCC2CCN(Cc3ccccc3)CC2)nc1N` meets or exceeds 7.
false (0)

For this compound, is measured pIC50 7 or higher? `N#Cc1c(N)nc(NC2CCN(Cc3ccccc3)CC2)c(C#N)c1-c1ccccc1`
false (0)

Hi team, for `N#Cc1c(N)nc(NCCCC2CCN(Cc3ccccc3)CC2)c(C#N)c1-c1ccccc1` , is the recorded pIC50 at or above 7?
false (0)

Could you please find out whether `N#Cc1cc(C#N)c(NC2CCN(Cc3ccccc3)CC2)nc1N` has pIC50 that meets 7 or exceeds it?
false (0)

Form field: pIC50 at least 7? Entry: `N#Cc1cc(C#N)c(NCCCC2CCN(Cc3ccccc3)CC2)nc1N`
true (1)

* * *

target: Cholinesterase (Equus caballus, UniProt P81908)
Sequence (P81908 whole entry): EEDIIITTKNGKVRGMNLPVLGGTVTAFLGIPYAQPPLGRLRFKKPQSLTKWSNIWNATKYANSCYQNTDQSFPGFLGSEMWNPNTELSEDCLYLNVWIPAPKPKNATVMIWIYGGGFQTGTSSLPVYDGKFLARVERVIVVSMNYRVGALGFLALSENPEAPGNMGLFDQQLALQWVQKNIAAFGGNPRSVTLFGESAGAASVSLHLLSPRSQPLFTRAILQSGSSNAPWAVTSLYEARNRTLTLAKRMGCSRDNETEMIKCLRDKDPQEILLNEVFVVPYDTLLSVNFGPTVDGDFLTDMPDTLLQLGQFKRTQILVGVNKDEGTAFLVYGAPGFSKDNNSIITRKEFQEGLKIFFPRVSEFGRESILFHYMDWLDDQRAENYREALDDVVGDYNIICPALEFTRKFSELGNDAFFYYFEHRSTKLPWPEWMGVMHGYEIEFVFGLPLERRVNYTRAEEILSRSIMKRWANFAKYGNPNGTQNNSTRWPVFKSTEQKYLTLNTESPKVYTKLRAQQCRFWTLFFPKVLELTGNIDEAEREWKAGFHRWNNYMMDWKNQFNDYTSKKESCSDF
Endpoint: IC50

Which value of IC50 has been reported for `N#Cc1cc(C#N)c(N2CCCC2)nc1N` in the records?
> 10 µM

* * *

experiment: Permeability of the compound in PBS/ethanol at 1 mg/ml after 4 hrs by PAMPA; assay type: ADME; details: PAMPA; read-out: permeability
Criterion: Papp at 4 h, 1 mg/ml meeting or surpassing 20 ×10⁻⁶ cm/s. Met: 1 (yes). Not met: 0 (no).

These solved cases illustrate the format of a correct answer.
> print(dat)
                                smiles.data  class.assignment
1  N#Cc1c(N)nc(NCCC2CCN(Cc3ccccc3)CC2)c(C#N)c1-c1ccccc1           1 (yes)
2  N#Cc1cc(C#N)c(NCCC2CCN(Cc3ccccc3)CC2)nc1N            0 (no)
3  N#Cc1cc(C#N)c(NCCCC2CCN(Cc3ccccc3)CC2)nc1N           1 (yes)

In plain terms: is recorded Papp at 4 h, 1 mg/ml at least 20 ×10⁻⁶ cm/s for `N#Cc1c(N)nc(NCCCC2CCN(Cc3ccccc3)CC2)c(C#N)c1-c1ccccc1` ?
1 (yes)

Form field: Papp at 4 h, 1 mg/ml at least 20 ×10⁻⁶ cm/s? Entry: `N#Cc1cc(C#N)c(NC2CCN(Cc3ccccc3)CC2)nc1N`
0 (no)

Hi team, for `N#Cc1c(N)nc(NCCCCC2CCN(Cc3ccccc3)CC2)c(C#N)c1-c1ccccc1` , is the recorded Papp at 4 h, 1 mg/ml at or above 20 ×10⁻⁶ cm/s?
1 (yes)

Decide: is the reported value of Papp at 4 h, 1 mg/ml for `N#Cc1cc(C#N)c(NCCCCC2CCN(Cc3ccccc3)CC2)nc1N` equal to or greater than 20 ×10⁻⁶ cm/s?
1 (yes)

* * *

target: Cholinesterase (Homo sapiens, UniProt P06276); test: Inhibition of human serum BChE using butyrylthiocholine as substrate by Ellman method
Sequence (P06276 whole entry): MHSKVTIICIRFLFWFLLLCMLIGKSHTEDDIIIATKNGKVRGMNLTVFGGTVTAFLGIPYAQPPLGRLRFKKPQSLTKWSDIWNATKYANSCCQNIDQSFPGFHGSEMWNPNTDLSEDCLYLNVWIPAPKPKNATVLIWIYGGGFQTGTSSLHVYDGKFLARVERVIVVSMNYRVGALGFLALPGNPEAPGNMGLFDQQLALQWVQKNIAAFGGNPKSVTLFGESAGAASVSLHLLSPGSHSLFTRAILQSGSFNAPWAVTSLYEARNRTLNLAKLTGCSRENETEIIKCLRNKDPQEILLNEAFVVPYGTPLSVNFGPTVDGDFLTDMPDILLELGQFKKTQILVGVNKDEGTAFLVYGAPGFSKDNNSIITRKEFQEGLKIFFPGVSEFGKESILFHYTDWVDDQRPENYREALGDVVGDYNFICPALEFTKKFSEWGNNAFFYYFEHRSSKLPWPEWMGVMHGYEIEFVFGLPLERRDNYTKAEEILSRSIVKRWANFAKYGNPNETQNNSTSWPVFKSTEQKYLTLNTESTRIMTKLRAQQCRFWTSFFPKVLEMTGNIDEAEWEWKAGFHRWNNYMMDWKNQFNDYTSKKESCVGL
pIC50: −log10 of the molar value.
Classify as follows. Reported pIC50 greater than or equal to 6: Fulfilled. Reported pIC50 below: Not fulfilled.

Kindly determine if pIC50 recorded for `N#Cc1cc(C#N)c(NCCCC2CCN(Cc3ccccc3)CC2)nc1N` is above or exactly 6.
Not fulfilled

Given `N#Cc1c(N)nc(NC2CCN(Cc3ccccc3)CC2)c(C#N)c1-c1ccccc1` , state whether its pIC50 is at least 6.
Not fulfilled

Given `N#Cc1cc(C#N)c(NCCCCC2CCN(Cc3ccccc3)CC2)nc1N` , state whether its pIC50 is at least 6.
Not fulfilled

Could you tell me if the measured pIC50 of `N#Cc1cc(C#N)c(NC2CCN(Cc3ccccc3)CC2)nc1N` reaches 6 or more?
Not fulfilled

Hello, I need to know if `N#Cc1c(N)nc(NCCCCC2CCN(Cc3ccccc3)CC2)c(C#N)c1-c1ccccc1` has measured pIC50 not below 6. Thanks!
Fulfilled

Assess whether reported pIC50 for `N#Cc1cc(C#N)c(NCCC2CCN(Cc3ccccc3)CC2)nc1N` sits at 6 or higher.
Fulfilled
